Recorded measurements of TGI, one per entry
# Test system: IGROV1 ovarian
# measurement notes: NCI tumour cell line growth inhibition, 48 h

| compound | target desc | TGI |
| --- | --- | --- |
| C=C=C(C)[Si](C)(C)C | IGROV1 ovarian | > 100 µM |
| CCN(CC)CCOc1ccc(/C=C2\CC3C4CCC5=CC(=O)CC[C@]5(C)C4CC[C@]3(C)C2=O)cc1OC (some centres not stated) | IGROV1 ovarian | > 100 µM |
| CC(=O)c1ccc(Oc2ccc(/C(C)=N\N=C(N)N)cc2)cc1 | IGROV1 ovarian | 18.2 µM |
| O=c1ccccc2cccc(O)c12 | IGROV1 ovarian | > 100 µM |
| O=P(O)(O)C(CSc1ccccc1)P(=O)(O)O | IGROV1 ovarian | > 100 µM |
| O=C1C2C=CC1C1C(=O)OC(=O)C21 (configuration not stated) | IGROV1 ovarian | > 100 µM |
| COC(CCP(=O)(c1ccccc1)c1ccccc1)(C(=O)c1ccccc1)c1ccccc1 (configuration not stated) | IGROV1 ovarian | 25.4 µM |
| CCCNCc1nc2ccc(Br)cc2c(=O)n1CCC | IGROV1 ovarian | 29.7 µM |
| CC(=O)Nc1ncc(Sc2ccccc2C(=O)O)s1 | IGROV1 ovarian | > 100 µM |
| Cc1ccccc1C(=O)Oc1ccc(Oc2ccccc2)cc1 | IGROV1 ovarian | > 100 µM |
| CC1=CC(C)(C)N=C2SC(c3ccc(Cl)cc3)=NN12 | IGROV1 ovarian | > 100 µM |
| CN1C(c2ccccc2)=CC(=O)C(O)=C(c2ccccc2)S1(=O)=O | IGROV1 ovarian | > 100 µM |

###

# Tested on: UACC-62 melanoma
# measurement notes: NCI tumour cell line growth inhibition, 48 h

| compound | unit tag | relation symbol | TGI |
| --- | --- | --- | --- |
| Nc1cc(-c2ccccc2)ccc1O | µM | > | 100 |
| COc1cc(N=NN(C)C)c(C(C)c2c3cc(OC)c(OC)cc3cc[n+]2C)cc1OC (stereo unspecified) | µM | = | 59.5 |
| Cc1ccc(NC(=O)/C(CC(=O)c2c[n+](=O)c3ccccc3n2O)=N\NC(=O)C[n+]2ccccc2)cc1 | µM | > | 100 |
| Cc1c(-c2cc3n(n2)C(c2cccs2)C(C#N)=C(c2ccccc2)N3)c(=O)n(-c2ccccc2)n1C (stereo unspecified) | µM | > | 100 |
| COc1ccc2[nH]cc(-c3nc(-c4cn(C)c5ccncc45)cs3)c2c1 | µM | = | 37.5 |
| [Cu+2].[O-]c1ccc2ccccc2c1N=Nc1ccccc1.[O-]c1ccc2ccccc2c1N=Nc1ccccc1 | µM | > | 100 |
| O=C(Nc1cc(C(F)(F)F)ccc1F)Nc1n[nH]c2ccccc12 | µM | > | 100 |
| NNC(=O)c1c(Cl)c(Cl)c(Cl)c(Cl)c1-c1nc2ccccc2[nH]1 | µM | = | 24.7 |
| COc1ccc(C2SCC(=O)N2c2ccc(-c3ccc(-n4c(-c5ccccc5)nc5ccccc5c4=O)cc3)cc2)cc1 (stereo unspecified) | µM | > | 100 |
| CCCNCc1nc2ccc(Br)cc2c(=O)n1CCC | µM | = | 19.8 |
| CC(C)C(C/C=C1/CC(CO)(COC(=O)CC(C(C)C)C(C)C)OC1=O)C(C)C (stereo unspecified) | µM | = | 30.1 |
| O=c1/c(=C/c2ccc(Cl)cc2Cl)sc2nc3ccccc3n12 | µM | > | 100 |
| CC(C)=CCc1c(O)cc(/C=C/c2cc(O)c3c(c2)C[C@@H]2C(C)(C)[C@H](O)[C@H](O)C[C@@]2(C)O3)cc1O | µM | = | 0.325 |
| O=C1c2ccccc2-c2nc(-c3cccnc3)cc3c2c1nc1ccccc13 | µM | > | 100 |
| COC(=O)C1=Nc2c(C)nn(-c3ccccc3)c2N=C(c2ccc(C)cc2)C1 | µM | > | 10 |
| COC(=O)CC1(CNC(=O)OCc2ccccc2)OCCO1 | µM | > | 100 |
| CC(=O)OC1COC(S[As](C)C)C(OC(C)=O)C1OC(C)=O (stereo unspecified) | µM | = | 1.61 |
| Cc1csc2nc(-c3ccc([N+](=O)[O-])cc3)c(/C=N/N=C(N)N)n12 | µM | = | 3.17 |
| O=C1OCC(C#Cc2ccccc2)=C1Cl | µM | = | 18.8 |
| O=C1NC2(CCCCC2)N=C2C(Cl)CCCC12Cl (stereo unspecified) | µM | > | 100 |
| CC1(c2ccc(Cl)cc2)CC(c2ccc(Cl)cc2)=C(C#N)C(=C(C#N)C#N)N1 (stereo unspecified) | µM | = | 33.5 |
